experimental target: Ba/F3-Syk cells (Homo sapiens, UniProt P43405)
Construct: fused on or other part: Possible but unprinted fusion partner: TEL (ETV6), the usual partner for Ba/F3 lines transformed by Syk; Nothing on a partner is printed
method summary: Ba/F3 Proliferation Assay, Ba/F3-Syk cells (Resazurin)
test conditions: 48-hour incubation
pEC50: −log10 of the molar value.
Decision: pEC50 compared against 7; not below it gives True, below it gives False.

• CC1(C)CNC[C@@H](COc2nc(-c3cnn(CC4CC4)c3)cc3ncccc23)O1 [Compound 6.21] = True
• CC1(C)CNC[C@@H](COc2cc(-c3ccn(CC(F)F)c3)cc3ncccc23)O1 [Compound 7.6] = True
• CC1(C)CNC[C@@H](COc2cc(-c3cnn(C(C)(C)C)c3)cc3ncccc23)O1 [Compound 3.2] = True
• Cn1ccc(-c2cc(OC[C@@H]3CNCC4(CC4)O3)c3nccnc3c2)c1 [Compound 12.4] = True
• Cc1cc(-c2cc3ncccc3c(OC[C@@H]3CNCCO3)n2)c(C)s1 [Compound 2.37] = False
• CC[C@@]1(COc2nc(-c3cnn(C(C)(C)C)c3)cc3ncccc23)CNCCO1 [Compound 10.14] = False
